assay: amyloid nucleation score (Sup35N fusion, yeast selection) (log enrichment); library NNK2; higher = more nucleation; inactive = no reads after selection;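 further: zero at mode of non-aggregating sequences after 7 days selection at 30°C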
Outcome measure: amyloid nucleation score

Substance	Outcome measure	Value reported
VYLINRWVYPWEFIVHIIRV	amyloid nucleation score	inactive
VFTISESHLCWQYHLQEFT	amyloid nucleation score	4.76
NVKSYKGQRFVAFGGGSVYA	amyloid nucleation score	0.567
PMCPMSIVLCSATLLLELFV	amyloid nucleation score	5.41
TLCVAIMYMHLGYAL	amyloid nucleation score	0.178
LMWENFSRRLLYWLLCGS	amyloid nucleation score	inactive
NFPAWCV	amyloid nucleation score	0.495
VCGFRAIVVVDPYWQPGKMA	amyloid nucleation score	2.42
VINLRLLLIVLDGDIDYWCV	amyloid nucleation score	inactive
TVLILPPHTRSDINFMVHYT	amyloid nucleation score	4.43
QCSIVWR	amyloid nucleation score	6.61
YAIDRRKSL	amyloid nucleation score	inactive
RFTESYSL	amyloid nucleation score	-0.935
TPENFHLR	amyloid nucleation score	inactive
KDGSPYKYLA	amyloid nucleation score	-0.554
LSGVGFLDFRPLN	amyloid nucleation score	0.734
MFSIYSGYIVKQC	amyloid nucleation score	0.336
VGGQNGCCWVVLNTSVPNSS	amyloid nucleation score	6.64
ANLLKTRRVMYRGFG	amyloid nucleation score	0.611
IVLFVKVDLLIDLISPL	amyloid nucleation score	0.049
RYMRFYRLAGPAVLRFHLR	amyloid nucleation score	inactive
NVMKVLSNRL	amyloid nucleation score	1.61
RYIGMLRFVVCDYGLMIFWS	amyloid nucleation score	-0.394
LHGVVGLFKY	amyloid nucleation score	-1.55
ANMCPYAHRVTGVMFCLLPW	amyloid nucleation score	inactive
PFDFWRLISSLG	amyloid nucleation score	0.531
HCMLEYRMIVCVLVYAGYNM	amyloid nucleation score	0.448
QAHVQILYKL	amyloid nucleation score	5.95
KAIGCAIKTFRYIYWIIWLL	amyloid nucleation score	inactive
DGNNVVIWLLWLSANMTGAG	amyloid nucleation score	1.97
NIYIWVSTMFLLKSEQSSSN	amyloid nucleation score	6.04
LALSRYFGL	amyloid nucleation score	-0.909
HAAGSLHMDYLV	amyloid nucleation score	0.122
AVPNLGSVPYVVDLMI	amyloid nucleation score	0.907
VVSPRVTGNME	amyloid nucleation score	0.302
FFYHLCASVRLA	amyloid nucleation score	-1.11
GQYVQCNMSCVYVFLQWQRR	amyloid nucleation score	6.26
SHLALTY	amyloid nucleation score	0.14
FVKYRSLGKWVLRVTGVMVD	amyloid nucleation score	inactive
MRLVSSDDFCV	amyloid nucleation score	0.097
RDNRSLTELLNRTMVHFVIM	amyloid nucleation score	inactive
YSRWRSLCTGAAFPGFWLNT	amyloid nucleation score	1.96
TLCVGVFAHTAMRCRECHAA	amyloid nucleation score	5.48
YNKGWR	amyloid nucleation score	inactive
GEQSDFSSSYSYLLWKVWDG	amyloid nucleation score	-1.2
ADSVLYNCVCRFSSVPQVLR	amyloid nucleation score	-0.263
TVWGYSSDLKLLEFISIGTQ	amyloid nucleation score	2.71
GLCKFKQVCTNSVGNYVGYF	amyloid nucleation score	-2.18
MYTKVNF	amyloid nucleation score	-0.93
YCTGPVIWPWHKGLLSWYAW	amyloid nucleation score	1.19
CNFYCPRDPQSSIVSYTMSY	amyloid nucleation score	-0.159
IFNVHMVRF	amyloid nucleation score	9.32
RAKTNSVGDLQYGIHVPMKG	amyloid nucleation score	-0.043
CSFSIAFWKS	amyloid nucleation score	0.714
YAFQGHGNFETGSYPEVLAA	amyloid nucleation score	0.098
IWILELFKY	amyloid nucleation score	4.07
DVLIRKWIIWDASNLQWMAI	amyloid nucleation score	0.144
LIFLSDFLLPPSSPARDPYL	amyloid nucleation score	-0.719
HVKTTYQLAFSNEQIM	amyloid nucleation score	-0.673
HLRQWDEYLETGCVN	amyloid nucleation score	0.32
FKDSDVEEWLNVKIIYWGVC	amyloid nucleation score	-0.604
IAFGAGCLMWSR	amyloid nucleation score	8.34
